# TARGET: UniProtKB O95271
# Sequence (O95271 whole entry, the tested form may be a part): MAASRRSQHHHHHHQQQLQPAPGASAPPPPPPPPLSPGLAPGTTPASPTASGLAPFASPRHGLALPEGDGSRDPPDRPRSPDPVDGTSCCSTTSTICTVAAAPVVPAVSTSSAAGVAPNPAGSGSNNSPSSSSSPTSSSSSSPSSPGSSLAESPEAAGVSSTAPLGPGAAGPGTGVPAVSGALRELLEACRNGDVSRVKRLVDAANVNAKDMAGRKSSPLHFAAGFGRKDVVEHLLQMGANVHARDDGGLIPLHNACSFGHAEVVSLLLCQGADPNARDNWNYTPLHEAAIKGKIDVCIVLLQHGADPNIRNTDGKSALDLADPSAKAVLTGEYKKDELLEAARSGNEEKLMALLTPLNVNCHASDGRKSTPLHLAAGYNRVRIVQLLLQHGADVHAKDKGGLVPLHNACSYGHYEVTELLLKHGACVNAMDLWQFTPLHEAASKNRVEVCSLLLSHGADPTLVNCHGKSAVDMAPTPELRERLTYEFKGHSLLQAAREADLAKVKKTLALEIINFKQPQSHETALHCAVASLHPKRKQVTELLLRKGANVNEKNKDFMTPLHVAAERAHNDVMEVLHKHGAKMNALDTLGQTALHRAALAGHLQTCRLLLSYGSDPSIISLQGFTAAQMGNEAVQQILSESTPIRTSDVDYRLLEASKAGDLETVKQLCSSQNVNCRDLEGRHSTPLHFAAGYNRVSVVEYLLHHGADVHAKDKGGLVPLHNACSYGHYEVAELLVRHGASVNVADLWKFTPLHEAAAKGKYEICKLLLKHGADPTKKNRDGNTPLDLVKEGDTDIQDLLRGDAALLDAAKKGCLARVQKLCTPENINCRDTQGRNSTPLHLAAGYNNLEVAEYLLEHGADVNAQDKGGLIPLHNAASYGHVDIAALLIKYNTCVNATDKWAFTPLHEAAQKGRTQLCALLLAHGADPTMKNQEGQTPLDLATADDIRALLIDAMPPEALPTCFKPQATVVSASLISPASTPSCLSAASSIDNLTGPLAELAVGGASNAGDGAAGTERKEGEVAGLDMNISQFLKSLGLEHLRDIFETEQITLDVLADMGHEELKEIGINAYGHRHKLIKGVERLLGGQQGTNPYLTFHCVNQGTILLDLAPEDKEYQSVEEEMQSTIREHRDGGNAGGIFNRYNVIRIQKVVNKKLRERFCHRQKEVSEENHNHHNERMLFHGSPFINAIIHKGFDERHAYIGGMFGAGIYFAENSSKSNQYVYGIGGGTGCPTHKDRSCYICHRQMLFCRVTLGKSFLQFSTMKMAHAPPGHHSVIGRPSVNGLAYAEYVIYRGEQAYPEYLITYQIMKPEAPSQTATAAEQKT
# METHOD: Inhibition of human recombinant […] TNKS1 (1030 to 1317 residues) expressed in Escherichia coli assessed as inhibition by fluorescence based analysis
PROPERTY: IC50 (nM)
Numbers only, in nM.

| COMPOUND | MEASURED |
| --- | --- |
| NS(=O)(=O)c1ccc(-c2nc3ccccc3c(=O)[nH]2)cc1 | 12 |
| CC1(c2ccc(-c3nc4ccccc4c(=O)[nH]3)cc2)NC(=O)NC1=O (stereo not given) | 5 |
| O=C1OCCN1c1ccc(-c2nc3ccccc3c(=O)[nH]2)cc1 | 15 |
| COC(=O)c1ccc(-c2nc3ccccc3c(=O)[nH]2)cc1 | 23 |

Ask | Test system UniProtKB O95271; read-out IC50; what value for O=C(Nc1ccc(-c2nc3ccccc3c(=O)[nH]2)cc1)c1cccs1 ?
Reply | 21
